For each entry below, report its remaining at 1 h, 5 μM value.
Assay: in vitro
Details: rat, rat EDTA plasma
Where a SMILES comes first, the peptide text is derived from it. [ ]: non-standard residue; d: D form. Phe(4-Cl) = N[C@@H](Cc1ccc(Cl)cc1)C(=O)O; 1Nal = N[C@@H](Cc1cccc2ccccc12)C(=O)O; hArg = N=C(N)NCCCC[C@H](N)C(=O)O; Cha = N[C@@H](CC1CCCCC1)C(=O)O; pGlu = O=C1CC[C@@H](C(=O)O)N1; Nle = CCCC[C@H](N)C(=O)O
One number for each entry, in %.

[[record]]
molecule = "CCCC[C@H](NC(=O)[C@@H]1CCCN1C(=O)CNC(=O)[C@H](CCCCN)NC(=O)[C@H](Cc1c[nH]cn1)NC(=O)[C@H](CO)NC(=O)[C@H](CC1CCCCC1)NC(=O)[C@H](CCCCNC(=N)N)NC(=O)[C@@H]1CCCN1C(=O)[C@H](CCCNC(=N)N)NC(=O)[C@@H]1CCC(=O)N1)C(=O)N[C@@H](Cc1cccc2ccccc12)C(=O)O [compound 31] ([pGlu]RP[hArg][Cha]SHKGP[Nle][1Nal]-OH; C-terminus assumed)"
endpoint_name = "remaining at 1 h, 5 μM"
observed_result = 63


Now, please, on to the next molecule.
Per the records, this molecule ( CCCC[C@H](NC(=O)[C@@H]1CCCN1C(=O)CNC(=O)[C@H](CCCCN)NC(=O)[C@H](Cc1c[nH]cn1)NC(=O)[C@H](CO)NC(=O)[C@H](CC1CCCCC1)NC(=O)[C@H](CCCCNC(=N)N)NC(=O)[C@@H]1CCCN1C(=O)[C@H](CCCNC(=N)N)NC(=O)[C@@H]1CCC(=O)N1)C(=O)N[C@@H](Cc1ccc(Cl)cc1)C(=O)O [compound 32] ([pGlu]RP[hArg][Cha]SHKGP[Nle][Phe(4-Cl)]-OH; C-terminus assumed) ) has remaining at 1 h, 5 μM equal to 64.6

Data origin: patent US20160067347A1
